These entries and their values trace back to PubChem BioAssay (NCI).

Tested on: A498 renal
Test: NCI-60 one-dose screen, 48 h (100 = growth as untreated, 0 = no growth, -100 = all killed)
Details: 10 µM
Experimental: Growth inhibition of the A498 human tumor cell line is measured as a screen for anti-cancer activity. Cells are grown in 96 well plates and exposed to the test compound for 48 hours. Compounds are tested at a single concentration, which is 10^-5 M for most compounds. The reported endpoint is percent growth (GI% or GIPRCNT), where numbers from 0 - 100% represent growth inhibition, and numbers from -100% - 0 represent cell death. For example, a value of 40 represents 60% growth inhibition. […]
This is part of a sample that, as a whole, favours compounds with a hit. Of some 83,000 tested, about 20% had one in any assay. Activity calls are given as the source filed them. The calls were made as follows: active = growth percent below 10; inactive = the rest.
Reported growth values are given for each entry in this list.
OBSERVABLE: growth

INSERT INTO assay_data (compound, observable, experimental_result) VALUES
  ('COc1ccc(/C=C2\CCCC3=C2N=C2SC(C)=CN2C3c2ccc(OC)cc2)cc1 (stereo not drawn)', 'growth', '76.8% (inactive)'),
  ('CCN(CC)CC(=O)N(CC)c1ccc(C)c(Cl)c1', 'growth', '86.8% (inactive)'),
  ('C[C@]12CCC3c4ccc(O)cc4C[C@@H](CCCCCCCCCS(=O)CCCC(F)(F)C(F)(F)F)C3C1CC[C@@H]2O (stereo partly drawn)', 'growth', '84.6% (inactive)'),
  ('Cc1ccc(NCCNCC(C)(C)O)c2c(=O)c3ccc(Cl)cc3sc12', 'growth', '59% (inactive)'),
  ('CC(C)(C)c1ccc(S(=O)(=O)N[C@H]2CC[C@H]3[C@@H]4CCc5cc(OS(=O)(=O)O)ccc5[C@H]4CC[C@]23C)cc1', 'growth', '28.1% (inactive)'),
  ('COc1ccc(-c2cc(-c3ccc(Cl)cc3)nc(SCCCC(=O)NO)n2)cc1', 'growth', '-19% (active)'),
  ('COc1cc(CNC(=O)C2CSC3(C)c4ccccc4C(=O)N23)cc(OC)c1OC (stereo not drawn)', 'growth', '90.5% (inactive)'),
  ('C(=N\Nc1ncnc2sc3c(c12)CCNC3)/c1cccc2ccccc12', 'growth', '98% (inactive)'),
  ('CCN(CC)CCOC(=O)c1cc(OCc2ccccc2)c(OCc2ccccc2)c(OCc2ccccc2)c1', 'growth', '68.8% (inactive)'),
  ('c1ccc(CSc2ncccc2-c2nnc(SCCN3CCOCC3)o2)cc1', 'growth', '107% (inactive)'),
  ('COc1cc(C2CC(c3ccccc3)=NN2C(C)=O)cc(OC)c1OC (stereo not drawn)', 'growth', '50.6% (inactive)'),
  ('CC[C@H]1OC(=O)[C@H](C)[C@@H](O[C@H]2C[C@@](C)(OC)[C@@H](O)[C@H](C)O2)[C@H](C)[C@@H](O[C@@H]2O[C@H](C)C[C@H](N(C)C)[C@H]2O)[C@](C)(OC)C/C(C)=C2/O[C@@]1(C)C=C2C', 'growth', '83.9% (inactive)'),
  ('COc1cccc(-c2nc3sccn3c2-c2cccc(S(C)(=O)=O)c2)c1', 'growth', '106% (inactive)');
